# studyTarget: sigma-receptor (Cavia porcellus, UniProt Q60492)
# Sequence (Q60492 whole entry): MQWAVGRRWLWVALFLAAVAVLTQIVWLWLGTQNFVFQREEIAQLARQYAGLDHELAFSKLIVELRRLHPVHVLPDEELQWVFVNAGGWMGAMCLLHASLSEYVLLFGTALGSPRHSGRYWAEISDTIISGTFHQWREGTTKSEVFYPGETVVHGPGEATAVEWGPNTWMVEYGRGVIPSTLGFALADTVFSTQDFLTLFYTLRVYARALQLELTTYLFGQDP
pIC50: −log10 of the molar value. Counter-ions that a name gives are not always drawn.
readoutKind: pIC50

molecule: OC(CCCN1CCC(Cc2ccc(F)cc2)CC1)c1ccc(F)cc1 (stereo not shown) [Example 7, hydrochloride]
pIC50: 8.06

(a) CCCN1CCC(Cc2ccc(F)cc2)CC1 [Example 1, hydrochloride]
(b) OC(CCCN1CCC(Cc2ccccc2)CC1)c1ccc(F)cc1 (stereo not shown) [Example 6, hydrochloride]
stdin: // which entry reports the smaller pIC50, a or b ? State your choice using its label.
stdout: a

(a) Fc1ccc(CC2CCN(CCCOc3ccc(F)cc3)CC2)cc1 [Example 11, hydrochloride]
(b) O=C(CCCN1CCC(Cc2ccc(F)cc2)CC1)c1ccc(F)cc1 [Example 5, hydrochloride]
stdin: Of the pair a and b , name the member with the lesser recorded pIC50. Returns: label corresponding to the selected item.
stdout: a

(1) Fc1ccc(CC2CCN(CCCOc3ccc(F)cc3)CC2)cc1 [Example 8]
(2) O=C1CC2(CCCC2)CC(=O)N1CCCCN1CCC(Cc2ccc(F)cc2)CC1 [Example 10, hydrochloride]
stdin: Endpoint returns whichever of 1 and 2 has the numerically higher pIC50. Return value: the label identifying the chosen record.
stdout: 2
